meta.source: patent US20230134571A1

- MEASUREMENT TARGET: HIV Env, isolate X1632_S2_B10 (HIV)
- TEST PROTOCOL: cell-based or functional assay
REPORTED METRIC: IC80 (µg/ml) with constrains (µg/mL)
# number only, unit µg/mL dropped from output

See these solved cases before continuing.
ePGDM5 (antibody, V domains shown) VH: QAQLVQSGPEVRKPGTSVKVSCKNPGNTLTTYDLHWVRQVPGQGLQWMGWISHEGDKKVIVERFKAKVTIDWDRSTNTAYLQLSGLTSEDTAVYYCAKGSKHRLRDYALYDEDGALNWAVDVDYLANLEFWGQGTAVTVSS VL: DFVLTQSPLSLSVTPGESASISCKSDHSLQHGDRNNYLAWYVQKPGRSPQLLIDLASERASGVPDRFSGSGSRKDFTLKIDRVEAEDVGTYYCMQGRESPWTFGQGTKVDIK	0.012
ePGDM13 (antibody, V domains shown) VH: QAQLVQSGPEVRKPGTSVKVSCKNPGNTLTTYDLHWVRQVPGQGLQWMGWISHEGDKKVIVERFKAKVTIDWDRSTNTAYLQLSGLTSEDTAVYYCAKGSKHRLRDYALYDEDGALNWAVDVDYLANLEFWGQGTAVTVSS VL: DIVLTQSPLSLSVTPGESASISCKSSHSLQHGDRNNYLAWYVQKPGRSPQLLLDLASERASGVPDRFSGSGSEKDFTLKISRVETEDVGTYYCMQGRESPWTFGQGTKVDIK	0.013

Notebook: ePGDM9 (antibody, V domains shown) VH: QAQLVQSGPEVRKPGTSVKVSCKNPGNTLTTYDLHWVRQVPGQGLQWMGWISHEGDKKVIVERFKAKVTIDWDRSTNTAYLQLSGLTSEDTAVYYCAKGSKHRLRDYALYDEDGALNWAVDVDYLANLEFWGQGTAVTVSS VL: DIVLTQSPLSLSVTPGESASISCKSSQSLIHGDRNNYLAWYVQKPGRSPQLLIDLASERASGVPDRFSGSGSRKDFTLKISRVETEDVGTYYCMQGRESPWTFGQGTKVDIK , IC80 (µg/ml) with constrains read as 0.01
